Reference source for all entries: patent US20250206828A1

# System: T1, human adenosine A2A receptor (A2aR) (human, UniProt P29274 1-412)
# T1 construct: Assays used HEK293 cells stably overexpressing human A2aR (BPS Bioscience 79381), human A2aR-expressing CHO cells, or endogenous A2aR on human PBMC; also called human A2aR; hA2aR
# T1 sequence (P29274 whole entry): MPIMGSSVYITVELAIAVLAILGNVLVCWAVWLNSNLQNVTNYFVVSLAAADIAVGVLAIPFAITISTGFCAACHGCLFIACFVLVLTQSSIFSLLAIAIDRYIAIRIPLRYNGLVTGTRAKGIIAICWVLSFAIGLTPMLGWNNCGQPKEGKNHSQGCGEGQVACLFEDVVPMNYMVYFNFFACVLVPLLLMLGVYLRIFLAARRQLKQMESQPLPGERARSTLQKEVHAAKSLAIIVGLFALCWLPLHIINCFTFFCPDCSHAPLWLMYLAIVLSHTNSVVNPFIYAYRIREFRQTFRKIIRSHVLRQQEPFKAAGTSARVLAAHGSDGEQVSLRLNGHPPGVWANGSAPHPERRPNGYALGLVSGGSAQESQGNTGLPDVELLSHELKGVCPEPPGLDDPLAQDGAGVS
# Protocol summary: flow cytometry, HEK293-hA2aR cells, supernatant 1 ug/ml
This listing pairs binders with measured MFI.
Assay metric: MFI (MFI)

Binder	Scale unit	Assay value
Hu3F6-H6/Hu3F6-L8 (antibody, human IgG1, V domains shown, Human IgG1 FES (L234F, L235E, P331S) and human Ig kappa constant domains) VH: EVQLVQSGAEVKKPGESLRISCKASGFAFTSYWMNWVRQMPGKGLEWIGRIDPSDSEAHYHHKFWGHATLSVDKSSSTVYLQWSSLKASDTAMYYCLRSLYGKGDYWGHGTTVTVSS VL: DVVMTQSPLSLPVTPGEPASISCRSSQSLVHRNGNTYLEWYLQKPGQSPQLLIYKVSNRFSGVPDRFSGSGSGTDFTLKISRVEAEDVGVYYCYQGSHVPLTFGGGTKVEIK	MFI	2000
Hu3F6-H3/Hu3F6-L6 (antibody, human IgG1, V domains shown, Human IgG1 FES (L234F, L235E, P331S) and human Ig kappa constant domains) VH: EVQLVQSGAEVKKPGASVKVSCKTSGFAFTSYWMNWVRQAPGQGLEWIGRIDPSDSEAHYHHKFWGRATLTVDTSSSTVYMELSSLRSEDTAVYYCLRSLYGKGDYWGHGTTVTVSS VL: DIVMTQTPPSLPVNPGEPASISCRSSQSLVHRNGNTYLEWYLQKPGQSPQLLIYKVSNRFSGVPDRFSGSGSGSDFTLKISWVEAEDVGVYYCYQGSHVPLTFGGGTKVEIK	MFI	1660
Hu3F6-H1/Hu3F6-L5 (antibody, human IgG1, V domains shown, Human IgG1 FES (L234F, L235E, P331S) and human Ig kappa constant domains) VH: QVQLVQSGAEVKKPGASVKVSCKASGFAFTSYWMNWVRQAPGQGLEWMGRIDPSDSEAHYHHKFWGRVTMTRDTSTSTVYMELSSLRSEDTAVYYCLRSLYGKGDYWGHGTTVTVSS VL: DVVMTQTPLSLSVTPGQPASISCRSSQSLVHRNGNTYLEWYLQKPGQSPQLLIYKVSNRFSGVPDRFSGSGSGTDFTLKISRVEAEDVGVYYCYQGSHVPLTFGGGTKVEIK	MFI	1500
Hu3F6-H5/Hu3F6-L5 (antibody, human IgG1, V domains shown, Human IgG1 FES (L234F, L235E, P331S) and human Ig kappa constant domains; also called Hu3F6 VH5/VL5; Hu3F6-VH5/VL5) VH: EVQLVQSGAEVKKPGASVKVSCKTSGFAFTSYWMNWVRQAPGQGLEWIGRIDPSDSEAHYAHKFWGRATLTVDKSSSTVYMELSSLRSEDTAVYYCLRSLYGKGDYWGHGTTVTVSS VL: DVVMTQTPLSLSVTPGQPASISCRSSQSLVHRNGNTYLEWYLQKPGQSPQLLIYKVSNRFSGVPDRFSGSGSGTDFTLKISRVEAEDVGVYYCYQGSHVPLTFGGGTKVEIK	MFI	1850
Hu3F6-H4/Hu3F6-L2 (antibody, human IgG1, V domains shown, Human IgG1 FES (L234F, L235E, P331S) and human Ig kappa constant domains) VH: EVQLVQSGAEVKKPGASVKVSCKTSGFAFTSYWMNWVRQAPGQGLEWIGRIDPSDSEAHYHHKFWGRATLTVDKSSSTVYMELSSLRSEDTAVYYCLRSLYGKGDYWGHGTTVTVSS VL: DVVMTQSPLSLPVTLGQPASISCRSSQSLVHRNGNTYLEWYQQRPGQSPRRLIYKVSNRFSGVPDRFSGSGSGTDFTLKISRVEAEDVGVYYCYQGSHVPLTFGGGTKVEIK	MFI	255
Hu3F6-H2/Hu3F6-L1 (antibody, human IgG1, V domains shown, Human IgG1 FES (L234F, L235E, P331S) and human Ig kappa constant domains) VH: EVQLVQSGAEVKKPGASVKVSCKTSGFAFTSYWMNWVRQAPGQGLEWMGRIDPSDSEAHYHHKFWGRVTMTVDTSTSTVYMELSSLRSEDTAVYYCLRSLYGKGDYWGHGTTVTVSS VL: DVVMTQSPLSLPVTLGQPASISCRSSQSLVHRNGNTYLEWFQQRPGQSPRRLIYKVSNRFSGVPDRFSGSGSGTDFTLKISRVEAEDVGVYYCYQGSHVPLTFGGGTKVEIK	MFI	13
Hu3F6-H5/Hu3F6-L8 (antibody, human IgG1, V domains shown, Human IgG1 FES (L234F, L235E, P331S) and human Ig kappa constant domains; also called Hu3F6 VH5/VL8) VH: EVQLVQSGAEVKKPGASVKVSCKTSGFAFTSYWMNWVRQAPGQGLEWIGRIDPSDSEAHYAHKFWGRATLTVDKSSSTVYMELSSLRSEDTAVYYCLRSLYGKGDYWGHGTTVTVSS VL: DVVMTQSPLSLPVTPGEPASISCRSSQSLVHRNGNTYLEWYLQKPGQSPQLLIYKVSNRFSGVPDRFSGSGSGTDFTLKISRVEAEDVGVYYCYQGSHVPLTFGGGTKVEIK	MFI	1890
Hu3F6-H3/Hu3F6-L8 (antibody, human IgG1, V domains shown, Human IgG1 FES (L234F, L235E, P331S) and human Ig kappa constant domains; also called Hu3F6 VH3/VL8) VH: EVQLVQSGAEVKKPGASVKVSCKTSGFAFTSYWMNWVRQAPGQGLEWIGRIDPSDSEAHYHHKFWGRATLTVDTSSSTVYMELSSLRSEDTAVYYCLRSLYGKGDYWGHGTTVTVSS VL: DVVMTQSPLSLPVTPGEPASISCRSSQSLVHRNGNTYLEWYLQKPGQSPQLLIYKVSNRFSGVPDRFSGSGSGTDFTLKISRVEAEDVGVYYCYQGSHVPLTFGGGTKVEIK	MFI	1830
Hu3F6-H4/Hu3F6-L5 (antibody, human IgG1, V domains shown, Human IgG1 FES (L234F, L235E, P331S) and human Ig kappa constant domains) VH: EVQLVQSGAEVKKPGASVKVSCKTSGFAFTSYWMNWVRQAPGQGLEWIGRIDPSDSEAHYHHKFWGRATLTVDKSSSTVYMELSSLRSEDTAVYYCLRSLYGKGDYWGHGTTVTVSS VL: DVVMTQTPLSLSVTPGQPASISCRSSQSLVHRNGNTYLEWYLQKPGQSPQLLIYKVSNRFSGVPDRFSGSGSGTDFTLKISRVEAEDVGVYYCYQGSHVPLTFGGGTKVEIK	MFI	1990
Hu3F6-H3/Hu3F6-L7 (antibody, human IgG1, V domains shown, Human IgG1 FES (L234F, L235E, P331S) and human Ig kappa constant domains) VH: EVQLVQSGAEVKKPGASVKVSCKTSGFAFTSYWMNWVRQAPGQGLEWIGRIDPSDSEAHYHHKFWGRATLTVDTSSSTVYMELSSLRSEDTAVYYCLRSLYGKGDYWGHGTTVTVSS VL: DVVMTQTPPSLPVNPGEPASISCRSSQSLVHRNGNTYLEWYLQKPGQSPQLLIYKVSNRFSGVPDRFSGSGSGSDFTLKISWVEAEDVGVYYCYQGSHVPLTFGGGTKVEIK	MFI	1510
